- Tested on: Canis familiaris
- assay-notes: Compound was tested for inotropic activity by measuring the concentration required to increase heart rate by 15% in the anesthetized dog after intravenous administration
- Assay type: functional, Canis lupus familiaris
Kindly supply the reported Equieffective dose values for the records listed here.

CCc1[nH]c(O)nc1C(=O)c1cccnc1; >3 mg/kg
CCc1[nH]c(O)nc1C(=O)c1cc[n+]([O-])cc1; >1 mg/kg
Cc1[nH]c(O)nc1C(=O)c1cccnc1; >3 mg/kg

Alright, here's another compound for you.
Problem: Fill in: Equieffective dose of CCc1[nH]c(O)nc1C(=O)c1cccnc1Cl is ___
Result: >3 mg/kg
